Recorded values, source paper PMC9424690.

Biological target: full-length TDP1 (Homo sapiens)
Construct: was incubated with recombinant full-length TDP1 or TDP1 (148–608) (40 p.m.)
Sequence (Q9NUW8 whole entry): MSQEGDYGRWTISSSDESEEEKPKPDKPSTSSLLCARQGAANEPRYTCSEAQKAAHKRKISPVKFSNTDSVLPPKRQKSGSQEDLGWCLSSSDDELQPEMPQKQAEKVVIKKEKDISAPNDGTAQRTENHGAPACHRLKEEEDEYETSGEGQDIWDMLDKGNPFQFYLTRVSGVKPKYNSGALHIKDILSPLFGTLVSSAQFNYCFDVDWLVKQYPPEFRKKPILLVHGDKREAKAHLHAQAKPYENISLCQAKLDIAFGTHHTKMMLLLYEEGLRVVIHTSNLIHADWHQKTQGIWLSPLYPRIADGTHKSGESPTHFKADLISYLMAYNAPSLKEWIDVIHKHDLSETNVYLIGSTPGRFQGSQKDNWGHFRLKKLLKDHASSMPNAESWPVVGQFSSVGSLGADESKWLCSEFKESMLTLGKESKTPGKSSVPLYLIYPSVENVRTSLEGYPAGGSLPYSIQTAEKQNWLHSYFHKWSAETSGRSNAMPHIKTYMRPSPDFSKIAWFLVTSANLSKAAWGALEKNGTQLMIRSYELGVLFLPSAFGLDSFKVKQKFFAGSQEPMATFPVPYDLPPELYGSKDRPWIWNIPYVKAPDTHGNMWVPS
Assay: Gel-based fluorescence assay of TDP1-catalyzed hydrolysis, full-length TDP1
Format: biochemical
Settings: full-length recombinant TDP1; 5′-Cy5 N14Y DNA substrate; 15 min, room temperature; repeated three times
Protocol: The synthetic products were examined for their ability to inhibit TDP1 catalysis in in vitro gel-based fluorescence assays as previously described ([Lountos et al., 2019]; [Zhao et al., 2021]). […] Inhibitors were evaluated at concentrations ranging from 12 μM to 27 mM (Figure 4). The TDP1 inhibition values were calculated based on gel images of cleavage product (N14P, 5′-Cy5-[…]-p-3′) shown in Figure 4 and listed in Table 1. […]
Exercise: for every item that follows, state its recorded IC50.
Report field: quantity (unit follows the number).

Solved entries:
• O=P(O)(O)c1ccc(Nc2c(-c3ccccc3)nc3cnccn23)cc1 [Compound 3a] = 2450 µM
• O=P(O)(O)c1ccc(Nc2c(-c3ccccc3)nc3ccccn23)cc1 [Compound 3b] = 1660 µM
• O=P(O)(O)c1ccc(Nc2c(-c3ccccc3)nc3cc(-c4ccccc4)ccn23)cc1 [Compound 3c] = 545 µM
• O=P(O)(O)c1ccc(Nc2c(-c3ccccc3O)nc3cc(-c4ccccc4)ccn23)cc1 [Compound 3e] = 293 µM
• O=P(O)(O)Cc1ccc(Nc2c(-c3ccccc3)nc3cnccn23)cc1 [Compound 4a] = 1280 µM

For the 3 compounds below, give their IC50 values.
1. O=P(O)(O)c1ccc(Nc2c(-c3ccccc3O)nc3ccccn23)cc1 [Compound 3d]
2. O=P(O)(O)Cc1ccc(Nc2c(-c3ccccc3)nc3ccccn23)cc1 [Compound 4b]
3. O=P(O)(O)Cc1ccc(Nc2c(-c3ccccc3)nc3cc(-c4ccccc4)ccn23)cc1 [Compound 4c]

Solution:
1: 1580 µM; 2: 1650 µM; 3: 583 µM
